As shown below, each of these molecules has a reported IC50 value.
Target: K-Ras / Raf RBD interaction (Homo sapiens, UniProt P01116, G12V)
Construct: The G12V mutant K-Ras (amino acids 1-185) was recombinantly fused; GST (N, cleaved yes); made in house; host or cells: Escherichia coli BL21
Sequence (P01116 1-185 isoform P01116-2 G12V): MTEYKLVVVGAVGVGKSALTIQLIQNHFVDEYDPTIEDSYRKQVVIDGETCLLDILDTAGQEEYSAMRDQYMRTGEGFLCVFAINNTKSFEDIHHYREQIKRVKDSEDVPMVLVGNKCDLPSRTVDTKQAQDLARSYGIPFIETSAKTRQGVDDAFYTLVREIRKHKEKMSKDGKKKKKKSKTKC
Experiment: HTRF assay, inhibition of Ras-Raf RBD interaction;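 note: HTRF signal read after overnight incubation of the assay plate at 4 °C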
Type: binding
Square brackets hold non-standard residues; d marks the D form. Side chains are listed from the residue outwards. Peptide text beside a SMILES is read from it. * marks the point of attachment. Phe(3,4-F2) = N[C@@H](Cc1ccc(F)c(F)c1)C(=O)O; Phe(4-F) = N[C@@H](Cc1ccc(F)cc1)C(=O)O; 2Nal = N[C@@H](Cc1ccc2ccccc2c1)C(=O)O; d2Nal = N[C@H](Cc1ccc2ccccc2c1)C(=O)O; Tle = CC(C)(C)[C@H](N)C(=O)O; dNle = CCCC[C@@H](N)C(=O)O; X3 = N#Cc1ccc(C(=O)*)cc1; Dap = NC[C@H](N)C(=O)O
observation.type: IC50 (nM)

>>> reported_result("CCCC[C@H]1NC(=O)[C@H](Cc2ccc(F)cc2)NC(=O)[C@H](CCCNC(=N)N)NC(=O)[C@@H](Cc2ccc3ccccc3c2)NC(=O)[C@H](CCCNC(=N)N)NC(=O)[C@H](CCCNC(=N)N)NC(=O)[C@@H](CCCNC(=N)N)NC(=O)[C@@H](C)NC(=O)[C@H](C(C)C)NC(=O)[C@H](Cc2c[nH]c3ccccc23)NC(=O)[C@H](CCC(N)=O)NC1=O [Cyclorasin 9A18] (cyclo(WV[dA][dR]RR[d2Nal]R[Phe(4-F)][dNle]Q))")
230
>>> reported_result("CCCC[C@H]1NC(=O)[C@H](CNC(=O)c2ccc(C#N)cc2)NC(=O)[C@H](CCCNC(=N)N)NC(=O)[C@@H](Cc2ccc3ccccc3c2)NC(=O)[C@H](CCCNC(=N)N)NC(=O)[C@H](CCCNC(=N)N)NC(=O)[C@H](CCCNC(=N)N)NC(=O)[C@@H](C)NC(=O)[C@H](C(C)(C)C)NC(=O)[C@H](Cc2c[nH]c3ccccc23)NC(=O)[C@H](CCC(N)=O)NC1=O [Cyclorasin 9A44c] (cyclo(W[Tle][dA]RRR[d2Nal]R[Dap](X3)[dNle]Q))")
150
>>> reported_result("CCCC[C@H]1NC(=O)[C@H](Cc2ccc(F)cc2)NC(=O)[C@H](CCCNC(=N)N)NC(=O)[C@H](Cc2ccc3ccccc3c2)NC(=O)[C@H](CCCNC(=N)N)NC(=O)[C@H](CCCNC(=N)N)NC(=O)[C@H](CCCNC(=N)N)NC(=O)[C@@H](C)NC(=O)[C@H]([C@@H](C)O)NC(=O)[C@H](Cc2c[nH]c3ccccc23)NC(=O)[C@H](CCC(N)=O)NC1=O [Cyclorasin 9A55] (cyclo(WT[dA]RRR[2Nal]R[Phe(4-F)][dNle]Q))")
940
>>> reported_result("CCCC[C@H]1NC(=O)[C@H](Cc2ccc(F)c(F)c2)NC(=O)[C@H](CCCNC(=N)N)NC(=O)[C@@H](Cc2ccc3ccccc3c2)NC(=O)[C@H](CCCNC(=N)N)NC(=O)[C@H](CCCNC(=N)N)NC(=O)[C@@H](CCCNC(=N)N)NC(=O)[C@@H](C(C)C)NC(=O)[C@H](C(C)(C)C)NC(=O)[C@H](Cc2c[nH]c3ccccc23)NC(=O)[C@H](CCC(N)=O)NC1=O [Cyclorasin 9A51] (cyclo(W[Tle][dV][dR]RR[d2Nal]R[Phe(3,4-F2)][dNle]Q))")
15
>>> reported_result("CCCC[C@H]1NC(=O)[C@H](Cc2ccc(F)cc2)NC(=O)[C@H](CCCNC(=N)N)NC(=O)[C@@H](Cc2ccc3ccccc3c2)NC(=O)[C@H](CCCNC(=N)N)NC(=O)[C@H](CCCNC(=N)N)NC(=O)[C@H](CCCNC(=N)N)NC(=O)[C@@H](CC(C)C)NC(=O)[C@H](C(C)(C)C)NC(=O)[C@H](Cc2c[nH]c3ccccc23)NC(=O)[C@H](CCC(N)=O)NC1=O [Cyclorasin 9A41] (cyclo(W[Tle][dL]RRR[d2Nal]R[Phe(4-F)][dNle]Q))")
2000
>>> reported_result("CCCC[C@H]1NC(=O)[C@H](Cc2ccc(F)cc2)NC(=O)[C@H](CCCNC(=N)N)NC(=O)[C@@H](Cc2ccc3ccccc3c2)NC(=O)[C@H](CCCNC(=N)N)NC(=O)[C@H](CCCNC(=N)N)NC(=O)[C@H](CCC(=O)N[C@@H](CCCCN)C(N)=O)NC(=O)[C@@H](C)NC(=O)[C@H]([C@@H](C)O)NC(=O)[C@H](Cc2c[nH]c3ccccc23)NC(=O)[C@@H](C)NC1=O [Cyclorasin 9A(ser7dA)] (cyclo(RR[d2Nal]R[Phe(4-F)][dNle][dA]WT[dA]E([Lys-NH2])))")
770
